Items are presented alongside their recorded switch fluorescence ratio.
- Tested on: ATP;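 further: ATP exposure 15 min at 22 °C before imaging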
- assay-procedure: switch fluorescence ratio, 500 uM ATP over buffer (Cy3 cluster intensity, sum of 5 cycles each) (fold (ratio)); higher = stronger signal-on switching upon ATP binding; sequences stand for … in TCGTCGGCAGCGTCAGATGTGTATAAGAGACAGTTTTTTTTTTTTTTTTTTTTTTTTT…TC
- experimental-context: aptamer strand: ATP DNA aptamer (quencher-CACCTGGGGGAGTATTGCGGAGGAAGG + anchor), 100 nM annealed; ATP concentration: 500 uM
metric-name: switch fluorescence ratio

>  <sequence-content>
TTTGGTTGTA

>  <system>
ATP;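 further: ATP exposure 15 min at 22 °C before imaging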

>  <result>
0.965

$$$$
>  <sequence-content>
TGAGGTTTTT

>  <system>
ATP;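 further: ATP exposure 15 min at 22 °C before imaging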

>  <result>
1.28

$$$$
>  <sequence-content>
AATTTTTGGG

>  <system>
ATP;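 further: ATP exposure 15 min at 22 °C before imaging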

>  <result>
0.994

$$$$
>  <sequence-content>
TTTTTCACGA

>  <system>
ATP;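 further: ATP exposure 15 min at 22 °C before imaging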

>  <result>
1.03

$$$$
>  <sequence-content>
TTAAGGACTC

>  <system>
ATP;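 further: ATP exposure 15 min at 22 °C before imaging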

>  <result>
1.1

$$$$
>  <sequence-content>
AAAATAATTC

>  <system>
ATP;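 further: ATP exposure 15 min at 22 °C before imaging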

>  <result>
1

$$$$
>  <sequence-content>
CGAAGGATTT

>  <system>
ATP;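 further: ATP exposure 15 min at 22 °C before imaging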

>  <result>
1

$$$$
>  <sequence-content>
AAGAGGGCGG

>  <system>
ATP;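 further: ATP exposure 15 min at 22 °C before imaging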

>  <result>
0.991

$$$$
>  <sequence-content>
TAGGGATCGT

>  <system>
ATP;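 further: ATP exposure 15 min at 22 °C before imaging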

>  <result>
0.98

$$$$
>  <sequence-content>
TGGAGGACTA

>  <system>
ATP;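 further: ATP exposure 15 min at 22 °C before imaging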

>  <result>
1.14

$$$$
>  <sequence-content>
CGTTGGGGGT

>  <system>
ATP;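 further: ATP exposure 15 min at 22 °C before imaging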

>  <result>
0.978

$$$$
>  <sequence-content>
AGCGTTAGTG

>  <system>
ATP;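 further: ATP exposure 15 min at 22 °C before imaging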

>  <result>
1.06

$$$$
>  <sequence-content>
CTACTCTCGC

>  <system>
ATP;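 further: ATP exposure 15 min at 22 °C before imaging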

>  <result>
1.15

$$$$
>  <sequence-content>
TTTTAGGCCC

>  <system>
ATP;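 further: ATP exposure 15 min at 22 °C before imaging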

>  <result>
1.09

$$$$
>  <sequence-content>
TTGCCATGTT

>  <system>
ATP;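 further: ATP exposure 15 min at 22 °C before imaging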

>  <result>
0.978

$$$$
>  <sequence-content>
GTGTCAGGGG

>  <system>
ATP;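 further: ATP exposure 15 min at 22 °C before imaging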

>  <result>
1.04

$$$$
>  <sequence-content>
TCGATCGCTA

>  <system>
ATP;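 further: ATP exposure 15 min at 22 °C before imaging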

>  <result>
1.43

$$$$
>  <sequence-content>
TAACTCACTA

>  <system>
ATP;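 further: ATP exposure 15 min at 22 °C before imaging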

>  <result>
1.15

$$$$
>  <sequence-content>
ACTAAAATAT

>  <system>
ATP;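 further: ATP exposure 15 min at 22 °C before imaging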

>  <result>
1.02

$$$$
>  <sequence-content>
GGGTGAAAAG

>  <system>
ATP;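 further: ATP exposure 15 min at 22 °C before imaging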

>  <result>
1.04

$$$$
